Recorded IC50, one value per entry.
EXPERIMENTAL_TARGET: Glucose-6-phosphate 1-dehydrogenase (Homo sapiens, UniProt P11413)
Sequence (P11413 whole entry): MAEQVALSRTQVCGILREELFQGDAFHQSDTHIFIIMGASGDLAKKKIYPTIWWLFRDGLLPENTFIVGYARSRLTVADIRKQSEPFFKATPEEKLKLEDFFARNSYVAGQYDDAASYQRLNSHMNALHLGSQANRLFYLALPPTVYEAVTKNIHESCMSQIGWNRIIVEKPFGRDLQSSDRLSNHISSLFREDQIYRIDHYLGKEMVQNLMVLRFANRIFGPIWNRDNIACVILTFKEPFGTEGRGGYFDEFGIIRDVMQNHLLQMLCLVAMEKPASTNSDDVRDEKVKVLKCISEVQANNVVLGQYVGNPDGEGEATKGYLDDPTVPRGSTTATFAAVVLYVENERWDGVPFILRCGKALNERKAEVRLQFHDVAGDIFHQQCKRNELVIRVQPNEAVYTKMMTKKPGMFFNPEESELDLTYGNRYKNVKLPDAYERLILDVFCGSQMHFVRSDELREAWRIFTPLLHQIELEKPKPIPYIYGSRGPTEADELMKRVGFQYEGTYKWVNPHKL
PROTOCOL_SUMMARY: inhibition of Homo sapiens G6PD, dose series – biochemical, fluorescence, selectivity assay for P. falciparum G6PD inhibitor project, dose response (AID 504792)
Type: functional
Active and inactive are the calls of the source. No stated cut-off is given here; in the data, active = IC50 of 20 µM or less and inactive = more.

Some compounds with known IC50 results, for comparison:
COMPOUND	EXPERIMENTAL_TARGET	IC50
COc1cc(N(C)C)ccc1C=c1c2ccccc2n2c1cc(-c1ccccc1)[n+]2C	Glucose-6-phosphate 1-dehydrogenase (Homo sapiens, UniProt P11413)	> 80 µM (inactive)
CN1CCc2cc(O)cc3c2[C@H]1Cc1ccc(O)c(O)c1-3	Glucose-6-phosphate 1-dehydrogenase (Homo sapiens, UniProt P11413)	63 µM (inactive)
[O-]/[N+](=C/c1cccnc1)c1ccc(Br)cc1	Glucose-6-phosphate 1-dehydrogenase (Homo sapiens, UniProt P11413)	28.2 µM (inactive)
Cc1ccc(NC(=O)c2cc(N3C(=O)C=CC3=O)ccc2Cl)cc1C	Glucose-6-phosphate 1-dehydrogenase (Homo sapiens, UniProt P11413)	50 µM (inactive)
Cc1ccc(S(=O)(=O)SC/C=C/CSS(=O)(=O)c2ccc(C)cc2)cc1	Glucose-6-phosphate 1-dehydrogenase (Homo sapiens, UniProt P11413)	59.5 µM (inactive)

Request the reported IC50 associated with O=C(CN1C(=O)C2C3C=CC(C3)C2C1=O)OCC(=O)c1ccc([N+](=O)[O-])cc1 (centres undefined)
> 80 µM (inactive)

Another compound to look at: COc1cccc(C=Nc2cc(C(C)C)c(O)cc2C)c1O
33.9 µM (inactive)

Another compound to look at: Cc1cc(C)c(NC(S)=NCC2CCN(C(C)c3ccccc3)C2)c(C)c1 (centres undefined)
> 80 µM (inactive)

Another compound to look at: COc1ccc2nc3cc(Cl)ccc3c(Nc3ccc(O)c(CN4CCN(C)CC4)c3)c2c1
> 80 µM (inactive)

Data credit: ChEMBL document CHEMBL1201862
